molecular target: GDP-bound KRAS protein (aa 1-169), containing both G12D and C118A amino acid substitutions (Homo sapiens, UniProt P01116, C118A/G12D); assay: KRAS G12D Coupled Nucleotide Exchange Assay; assay type: biochemical; conditions: 2 h compound pre-incubation
Sequence (P01116 1-169 isoform P01116-2 G12D/C118A): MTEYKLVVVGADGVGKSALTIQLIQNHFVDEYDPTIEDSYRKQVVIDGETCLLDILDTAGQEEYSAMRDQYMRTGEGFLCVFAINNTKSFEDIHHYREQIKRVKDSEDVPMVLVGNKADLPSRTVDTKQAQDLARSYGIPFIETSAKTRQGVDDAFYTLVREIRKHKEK
Class boundaries, taken from values of Avg 2 h Coupled Exchange IC50, are as follows: c1 (below 3 nM), c2 (3 nM to below 10 nM), c3 (10 nM or more)

Oc1cc(-c2ccc3c(N4[C@@H]5CNC[C@H]4COC5)nc(OC[C@@]45CCCN4C[C@H](F)C5)nc3c2F)c2ccccc2c1 [Example 2]; c2
N#Cc1c(OC[C@@]23CCCN2C[C@H](F)C3)nc2c(F)c(-c3cc(O)cc4ccccc34)c(Cl)cc2c1N1C[C@H]2CC[C@@H](C1)N2 [Example 61]; c3
CCc1c(F)ccc2cc(O)cc(-c3c(F)cc4c(N5C[C@H]6CC[C@@H](C5)N6)nc(OCC(O)(CC)CC)nc4c3F)c12 [Example 123]; c3
CCc1c(F)ccc2cc(O)cc(-c3cc4nc(OC[C@@]56CCCN5C[C@H](F)C6)nc(N5C[C@H]6CC[C@@H](C5)N6)c4cc3N)c12 [Example 203]; c1
CCc1c(F)ccc2cc(O)cc(-c3ccc4c(N5C[C@H]6CC[C@@H](C5)N6)nc(OCC5(O)CCCC5)nc4c3F)c12 [Example 133]; c2

Exercise: Sort into band: N#Cc1ccc2[nH]ncc2c1-c1ccc2c(N3C[C@H]4CC[C@@H](C3)N4)nc(OC[C@@]34CCCN3C[C@H](F)C4)nc2c1F [Example 197]
Key: c3

* * *

biological target: His-tagged KRAS G12D protein (Homo sapiens, UniProt P01116, G12D); test: KRAS G12D TR-FRET Assay
Sequence (P01116 1-188 isoform P01116-2 G12D): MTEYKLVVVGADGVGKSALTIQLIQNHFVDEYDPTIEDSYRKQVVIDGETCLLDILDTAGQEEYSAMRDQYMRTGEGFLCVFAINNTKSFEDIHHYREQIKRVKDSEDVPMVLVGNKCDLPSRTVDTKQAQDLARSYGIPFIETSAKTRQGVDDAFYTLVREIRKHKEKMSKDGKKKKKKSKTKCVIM
I'd appreciate it if you marked entries Y when IC50 is lower than 8 nM and N when it is not.

Here are 3 compounds together with their reported answers.
O=c1cc(-c2ccc3c(N4C[C@H]5CC[C@@H](C4)N5)nc(OC[C@@]45CCCN4C[C@H](F)C5)nc3c2F)c2ccccc2[nH]1 [Example 222]; N
Oc1cc(-c2ccc3c(N4C[C@H]5CC[C@@H](C4)N5)nc(OC[C@]45CCCN4C[C@H](F)C5)nc3c2F)c2ccccc2c1 [Example 44]; Y
CCc1c(F)ccc2cc(O)cc(-c3c(F)cc4c(N5C6CCC5C(=O)NC6)nc(OC[C@@]56CCCN5C[C@H](F)C6)nc4c3F)c12 (single isomer, unassigned) [Example 175]; Y

Exercise: Strictly below 8 nM in IC50? Cc1cccc(-c2c(F)cc3c(N4C[C@H]5CC[C@@H](C4)N5)nc(OC[C@@]45CCCN4C[C@H](F)C5)nc3c2F)c1C(F)(F)F [Example 149]
Key: Y

Exercise: Strictly below 8 nM in IC50? Cc1ccc2[nH]nc(N)c2c1-c1ccc2c(N3C[C@H]4CC[C@@H](C3)N4)nc(OC[C@@]34CCCN3C[C@H](F)C4)nc2c1F [Example 226]
Key: N

* * *

Exercise: for every item that follows, state its recorded IC50.
molecular target: His-tagged KRAS G12D protein (Homo sapiens, UniProt P01116, G12D); experiment: KRAS G12D TR-FRET Assay; format: binding
Answers are plain numbers, in nM.

Fc1cc2c(N3[C@@H]4CC[C@H]3CNC4)nc(OC[C@@]34CCCN3C[C@H](F)C4)nc2c(F)c1-c1cncc2cccc(Cl)c12; 70
Oc1cc(-c2ccc3c(N4C[C@H]5C[C@@H](C4)N5)nc(OCC45CCCN4CC(F)(F)C5)nc3c2F)c2ccccc2c1 (stereo partly drawn); 92

Next:
Exercise: Could you tell me which IC50 is on file for CCc1c(F)ccc2cc(O)cc(-c3cc(F)c4c(N5C[C@H]6CC[C@@H](C5)N6)nc(OC[C@@]56CCCN5C[C@H](F)C6)nc4c3F)c12 ?
Key: 4

The measured values listed here are drawn from patent US20250059205A1.
